// data source = patent US20260193366A1

# study.system: T1, hIL-4Rα on cells (human, UniProt P24394 26-825)
# T1 sequence: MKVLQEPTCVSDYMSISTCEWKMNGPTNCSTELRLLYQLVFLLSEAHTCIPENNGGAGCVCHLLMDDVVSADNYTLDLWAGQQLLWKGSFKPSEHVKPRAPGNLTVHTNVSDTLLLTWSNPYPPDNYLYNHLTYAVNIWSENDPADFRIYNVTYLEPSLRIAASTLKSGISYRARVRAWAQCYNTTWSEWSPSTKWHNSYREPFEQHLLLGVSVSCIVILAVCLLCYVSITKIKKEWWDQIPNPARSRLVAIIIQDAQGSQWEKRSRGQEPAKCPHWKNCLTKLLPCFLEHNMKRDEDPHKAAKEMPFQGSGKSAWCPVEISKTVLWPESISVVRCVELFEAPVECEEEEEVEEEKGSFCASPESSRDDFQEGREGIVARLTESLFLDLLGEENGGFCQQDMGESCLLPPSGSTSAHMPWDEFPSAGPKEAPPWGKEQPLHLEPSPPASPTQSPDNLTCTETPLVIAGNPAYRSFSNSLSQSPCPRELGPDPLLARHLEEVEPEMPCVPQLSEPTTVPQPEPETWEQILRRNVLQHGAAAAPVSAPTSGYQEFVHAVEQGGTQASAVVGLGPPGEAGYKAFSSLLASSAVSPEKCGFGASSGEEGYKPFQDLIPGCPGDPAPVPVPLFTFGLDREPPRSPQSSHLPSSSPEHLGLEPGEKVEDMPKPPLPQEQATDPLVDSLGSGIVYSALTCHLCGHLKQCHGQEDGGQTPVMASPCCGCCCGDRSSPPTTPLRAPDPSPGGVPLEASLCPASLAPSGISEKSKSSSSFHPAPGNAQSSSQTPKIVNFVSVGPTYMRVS
# test.description: cell-based or functional assay
reported.endpoint: Relative Inhibition of IL-4 induced TARC IC50

Use these answered entries as a reference point.
Construct 42 (mAb481) (antibody, IgG4, V domains shown, VH/VL only) VH: EVQLVESGGGLEQPGGSLRLSCAGSGFTFRTYAMTWVRQAPGKGLEWVSSISGDGSNTYYADSVKGRFTISRDNSKNTLYLQMNSLRAEDTAVYYCAKDRVSITIRPRYYGLDVWGQGTTVTVSS VL: DIVMTQSPLSLPVTPGEPASISCTASQSLLYSIGYNYVDWYLQKSGQSPQLLIYLGNKRASGVPDRFSGSGSGTDFTLKISRVEAEDVGFYYCMQALTTPYTFGQGTKLEIK    2.02 relative to dupilumab
Construct 18 (mAb426) (antibody, IgG4, V domains shown, VH/VL only) VH: EVQLVESGGGLEQPGGSLRLSCAGSGFTFRDFAMTWVRQAPGKGLEWVSSISGSGDNTYYADSVKGRFTISRDNSKNTLYLQMNSLRAEDTAVYYCAKDRLSKTIRPRYYGLDVWGQGTTVTVSS VL: DIVMTQSPLSLPVTPGEPASISCTSSQSLLYSIGKNYVDWYLQKSGQSPQLLIYLGNKRASGVPDRFSGSGSGTDFTLKISRVEAEDVGFYYCMQSLTSPYTFGQGTKLEIK    0.407 relative to dupilumab

Recorded Relative Inhibition of IL-4 induced TARC IC50 of Construct 46 (mAb501) (antibody, IgG4, V domains shown, VH/VL only) VH: EVQLVESGGGLEQPGGSLRLSCAGSGFTFRDSAMTWVRQAPGKGLEWVSSISGSGDGTYYADSVKGRFTISRDNSKNTLYLQMNSLRAEDTAVYYCAKDRLSIYIRPRYYGLDVWGQGTTVTVSS VL: DIVMTQSPLSLPVTPGEPASISCTSSQSLLYSIGYNYVDWYLQKSGQSPQLLIYLGNKRASGVPDRFSGSGSGTDFTLKISRVEAEDVGFYYCMQALQTPYTFGQGTKLEIK , please.
2.49 relative to dupilumab
